- condition-label: 283.15 K; 101.33 kPa; Liquid; Vibrating tube method
Hi there, I'd appreciate the recorded mass density for every entry that follows.
Numbers only; they are read as kg/m3.

Please give the documented mass density of CCCC[P+](C)(CCCC)CCCC.[Cl-] [methyltributylphosphonium chloride]
964.23

Give reported mass density value for CCCC[P+](C)(CCCC)CCCC.O=S(=O)([N-]S(=O)(=O)C(F)(F)F)C(F)(F)F
1267.21

Input CCCC[P+](C)(CCCC)CCCC.COS(=O)(=O)[O-] [tributylmethylphosphonium methyl sulfate] , output reported mass density.
1066.59

Recall and state the measured mass density for COS(=O)(=O)[O-].C[n+]1ccccc1 [1-methylpyridinium methylsulfate] .
1355

Identify the reported mass density for the following entry. CCCCn1cc[n+](C)c1.COS(=O)(=O)[O-] [1-butyl-3-methylimidazolium methyl sulfate]
1218.78

---

- condition-label: 313.15 K; 101.33 kPa; Liquid; transient hot wire
For each record, write down the corresponding thermal conductivity.
# value in W/m/K; strip the unit string

Find the measured thermal conductivity of COS(=O)(=O)[O-].C[n+]1ccccc1 [1-methylpyridinium methylsulfate] and report it.
0.204

Tell me thermal conductivity reported for CCCC[P+](C)(CCCC)CCCC.[Cl-] [methyltributylphosphonium chloride]
0.157

# return recorded thermal conductivity for input OCC(O)CO
0.284

Look up and state reported thermal conductivity for CCCC[P+](C)(CCCC)CCCC.O=S(=O)([N-]S(=O)(=O)C(F)(F)F)C(F)(F)F
0.122

Output measured thermal conductivity for this item: CCCC[P+](C)(CCCC)CCCC.COS(=O)(=O)[O-] [tributylmethylphosphonium methyl sulfate]
0.159

Name the recorded thermal conductivity of the item CCCCn1cc[n+](C)c1.COS(=O)(=O)[O-] [1-butyl-3-methylimidazolium methyl sulfate] in your answer.
0.176

---

Answer each item with its documented thermal conductivity.
- condition-label: 343.15 K; 101.33 kPa; Liquid; transient hot wire
Give the number; W/m/K is assumed, so skip it.

Give me measured thermal conductivity, please, for this molecule: CCCC[P+](C)(CCCC)CCCC.[Cl-] [methyltributylphosphonium chloride]
0.154

Please report thermal conductivity for the following molecule: CCCCn1cc[n+](C)c1.COS(=O)(=O)[O-] [1-butyl-3-methylimidazolium methyl sulfate]
0.172

Using the record for CCCC[P+](C)(CCCC)CCCC.O=S(=O)([N-]S(=O)(=O)C(F)(F)F)C(F)(F)F , state its measured thermal conductivity.
0.121

Name the recorded thermal conductivity of the molecule listed here: COS(=O)(=O)[O-].C[n+]1ccccc1 [1-methylpyridinium methylsulfate]
0.201

Give a short answer stating reported thermal conductivity for CCCC[P+](C)(CCCC)CCCC.COS(=O)(=O)[O-] [tributylmethylphosphonium methyl sulfate] .
0.157

---

- procedure-details: refractive index (Na D-line) (dimensionless)
- condition-label: 343.15 K; 101.33 kPa; Liquid; Standard Abbe refractometry
measured-quantity: refractive index
Write no unit; give the number alone.

Return reported refractive index. Input compound: COS(=O)(=O)[O-].C[n+]1ccccc1 [1-methylpyridinium methylsulfate]
1.5013

Give the value of refractive index reported for the following: CCCC[P+](C)(CCCC)CCCC.[Cl-] [methyltributylphosphonium chloride]
1.4888

Report measured refractive index; entry is CCCCn1cc[n+](C)c1.COS(=O)(=O)[O-] [1-butyl-3-methylimidazolium methyl sulfate]
1.4678

Give refractive index for the following compound: CCCC[P+](C)(CCCC)CCCC.COS(=O)(=O)[O-] [tributylmethylphosphonium methyl sulfate]
1.4619

Specify measured refractive index for CCCC[P+](C)(CCCC)CCCC.O=S(=O)([N-]S(=O)(=O)C(F)(F)F)C(F)(F)F .
1.4228

---

- condition-label: 313.15 K; 101.33 kPa; Liquid; Capillary tube (Ostwald / Ubbelohde) method
Tag: rule met if measured viscosity is not below 90 mPa·s, rule not met if it is.

API: above_or_equal(metric=viscosity, cutoff=90 mPa·s) for item CCCC[P+](C)(CCCC)CCCC.COS(=O)(=O)[O-] [tributylmethylphosphonium methyl sulfate]
rule met

Kindly determine if viscosity recorded for CCCC[P+](C)(CCCC)CCCC.[Cl-] [methyltributylphosphonium chloride] is above or exactly 90 mPa·s.
rule met

Check the entry COS(=O)(=O)[O-].C[n+]1ccccc1 [1-methylpyridinium methylsulfate] : does viscosity equal or exceed 90 mPa·s?
rule not met

---

- condition-label: 323.15 K; 101.33 kPa; Liquid; transient hot wire
measured-quantity: thermal conductivity (W/m/K)
Give just the number in W/m/K; leave the unit off.

Determine its reported thermal conductivity: CCCC[P+](C)(CCCC)CCCC.COS(=O)(=O)[O-] [tributylmethylphosphonium methyl sulfate]
0.158

Please look at this molecule and report its thermal conductivity: CCCC[P+](C)(CCCC)CCCC.O=S(=O)([N-]S(=O)(=O)C(F)(F)F)C(F)(F)F
0.123

State, in one line, measured thermal conductivity of CCCC[P+](C)(CCCC)CCCC.[Cl-] [methyltributylphosphonium chloride]
0.156

Write down thermal conductivity measured for item CCCCn1cc[n+](C)c1.COS(=O)(=O)[O-] [1-butyl-3-methylimidazolium methyl sulfate]
0.174

Return thermal conductivity (reported value) for this molecule: COS(=O)(=O)[O-].C[n+]1ccccc1 [1-methylpyridinium methylsulfate]
0.203

Entry OCC(O)CO [glycerol] needs its thermal conductivity filled in; supply it.
0.284

---

- procedure-details: refractive index (Na D-line) (dimensionless)
- condition-label: 293.15 K; 101.33 kPa; Liquid; Standard Abbe refractometry
measured-quantity: refractive index
// keep it numeric: no unit symbol after the value

Name the recorded refractive index of the item CCCC[P+](C)(CCCC)CCCC.[Cl-] [methyltributylphosphonium chloride] in your answer.
1.5037

Find the measured refractive index of CCCC[P+](C)(CCCC)CCCC.O=S(=O)([N-]S(=O)(=O)C(F)(F)F)C(F)(F)F and report it.
1.4374

Let me know recorded refractive index for CCCCn1cc[n+](C)c1.COS(=O)(=O)[O-] [1-butyl-3-methylimidazolium methyl sulfate] , thanks.
1.4804

Determine from records and report refractive index for COS(=O)(=O)[O-].C[n+]1ccccc1 [1-methylpyridinium methylsulfate]
1.5139

Could you please provide reported refractive index for CCCC[P+](C)(CCCC)CCCC.COS(=O)(=O)[O-] [tributylmethylphosphonium methyl sulfate] ? Thanks!
1.4755

---

- procedure-details: refractive index (Na D-line) (dimensionless)
- condition-label: 303.15 K; 101.33 kPa; Liquid; Standard Abbe refractometry
measured-quantity: refractive index
Write the value as a bare number.

Hello, please tell me recorded refractive index for this one: CCCC[P+](C)(CCCC)CCCC.O=S(=O)([N-]S(=O)(=O)C(F)(F)F)C(F)(F)F
1.4344

Answer with the recorded refractive index for the compound listed here: COS(=O)(=O)[O-].C[n+]1ccccc1 [1-methylpyridinium methylsulfate]
1.5113

Provide only the value of recorded refractive index for CCCC[P+](C)(CCCC)CCCC.COS(=O)(=O)[O-] [tributylmethylphosphonium methyl sulfate]
1.4728

Recall and state the measured refractive index for CCCCn1cc[n+](C)c1.COS(=O)(=O)[O-] [1-butyl-3-methylimidazolium methyl sulfate] .
1.4781

Recall and state the measured refractive index for CCCC[P+](C)(CCCC)CCCC.[Cl-] [methyltributylphosphonium chloride] .
1.4999

---

- condition-label: 303.15 K; 101.33 kPa; Liquid; Direct current cell with electrodes
Please go through the items and note down their electrical conductivity.
Numeric answer only, unit S/m assumed.

Consider the compound CCCC[P+](C)(CCCC)CCCC.[Cl-] [methyltributylphosphonium chloride] and give its recorded electrical conductivity.
0.0059

Give the value of electrical conductivity reported for the following: COS(=O)(=O)[O-].C[n+]1ccccc1 [1-methylpyridinium methylsulfate]
0.45

Quote electrical conductivity reported for CCCC[P+](C)(CCCC)CCCC.COS(=O)(=O)[O-] [tributylmethylphosphonium methyl sulfate] please.
0.0158

Assign electrical conductivity to the following record: CCCC[P+](C)(CCCC)CCCC.O=S(=O)([N-]S(=O)(=O)C(F)(F)F)C(F)(F)F
0.0743

Assign electrical conductivity to the following record: CCCCn1cc[n+](C)c1.COS(=O)(=O)[O-] [1-butyl-3-methylimidazolium methyl sulfate]
0.177

---

- condition-label: 293.15 K; 101.33 kPa; Liquid; Direct current cell with electrodes
Could you please report measured log10 electrical conductivity for the items listed next?
// stored as log10 of electrical conductivity expressed in S/m

Output measured log10 electrical conductivity for this item: CCCC[P+](C)(CCCC)CCCC.COS(=O)(=O)[O-] [tributylmethylphosphonium methyl sulfate]
-2.13

Return reported log10 electrical conductivity. Input molecule: CCCC[P+](C)(CCCC)CCCC.O=S(=O)([N-]S(=O)(=O)C(F)(F)F)C(F)(F)F
-1.44

Please give measured log10 electrical conductivity of the following entry: CCCC[P+](C)(CCCC)CCCC.[Cl-] [methyltributylphosphonium chloride]
-2.60

Report log10 electrical conductivity for COS(=O)(=O)[O-].C[n+]1ccccc1 [1-methylpyridinium methylsulfate]
-0.54

Identify measured log10 electrical conductivity corresponding to CCCCn1cc[n+](C)c1.COS(=O)(=O)[O-] [1-butyl-3-methylimidazolium methyl sulfate]
-0.98
